Please go through the items and note down their one-hybrid fitness for binding parS DNA.
B1: Caulobacter ParB omega fusion; a variant is named by its letters at X, in order, B8GW30 (parent)
chain: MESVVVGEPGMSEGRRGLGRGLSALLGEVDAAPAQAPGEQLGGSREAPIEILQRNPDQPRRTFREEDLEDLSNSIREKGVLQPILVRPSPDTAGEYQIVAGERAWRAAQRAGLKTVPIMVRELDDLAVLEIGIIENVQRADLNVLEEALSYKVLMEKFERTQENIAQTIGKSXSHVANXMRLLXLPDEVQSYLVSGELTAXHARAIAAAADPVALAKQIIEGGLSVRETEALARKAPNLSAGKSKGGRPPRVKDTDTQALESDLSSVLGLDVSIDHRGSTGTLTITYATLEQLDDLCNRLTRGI

- Variants of: B1
- ASSAY_NOTES: one-hybrid fitness for binding parS DNA (scaled: cognate 1, non-cognate 0); higher = stronger binding
- CONDITION_PARAMETERS: with parS DNA site
Whole data set: some 81,000 sequences, median “one-hybrid fitness for binding parS DNA” near -0.17, cut for the highest 2% near 0.51. Only a selection was taken, and the highest values are over-represented in it overall.

Task item: Answer with the recorded one-hybrid fitness for binding parS DNA for the variant listed here: `RYPG`
Reply: 0.545

Task item: # return recorded one-hybrid fitness for binding parS DNA for input `NVTA`
Reply: ≤ 0.2

Task item: Answer with the recorded one-hybrid fitness for binding parS DNA for the variant listed here: `EFTA`
Reply: ≤ 0.2

Task item: Using known records, supply one-hybrid fitness for binding parS DNA for `SKPK`
Reply: ≤ 0.2

Task item: Give the reported value of one-hybrid fitness for binding parS DNA for this record: `RYPH`
Reply: ≤ 0.2
